Assay: yeast display, Sf9 membrane polyspecificity reagent, FACS + sequencing; frameworks hold sequencing errors
measuredParameter: polyreactivity (PSR sort gate)

Example cases with answers are listed next.
[[record]]
itemsequence = "QVQLVESGGGLVQAGGSLRLSCAASGRTLNRNAMGWYRQAPGKERELVAAISRRGGSTNYADSVKGRFTISRDNAKNTVYLQMNSLKPEDTAVYYCARVTTVYDGRGFVDVKRGYWGQGTQVTVSS"
experimentalresult = "high polyreactivity"

[[record]]
itemsequence = "QVQLVESGGGLVQAGGSLRLSCAASGYTFYFYAMGWSRQAPGKEREFVAAIRSSGGRTYYADSVKGRFTISRDNAKNTVYLQMNSLKPVDTAVYYCAAAGYYYSVDGAGPRYDYWGQGTQVTVSS"
experimentalresult = "low polyreactivity"

[[record]]
itemsequence = "QVQLVESGGGLVQAGGSLRLSCAASGSIFQYYVMGWYRQAPGKERELVAAISQSGGRTYYADSVKGRFTISRDNAKNTVYLQMNSLKPEDTAVYYCAADSRNAEYDYWGQGTQVTVSS"
experimentalresult = "high polyreactivity"

[[record]]
itemsequence = "QVQLVESGGGLVQAGGSLRLSCAASGSTFNLYAMGWYRPAPGKERELVAAISRGGSTYYADSVKGRFTISRDNAKNTVYLQMNSLKPEDTAVYYCAARSWYDRYPYYSWGQGTQVTVSS"
experimentalresult = "high polyreactivity"

[[record]]
itemsequence = "QVQLVESGGGLVQAGGSLRLSCAASGNTFRYNTMGWYRQAPGKERELVAVITRRGSSTYYADSVKGRFTISRDNAKNTVYLQMNSLKPEDTAVYYCAAAPYYVTLVTRRDYWGQGTQVTVSS"
experimentalresult = "high polyreactivity"


Report polyreactivity (PSR sort gate), nothing else, for this sequence: QVPLVESGGGLVQAGGSLRLSCAASGRIFYFNDMGWYRQAPGKERELVAAISRSGGSTYYADSVKGRFTISRDNAKNTVYLQMNSLKPEDTAVYYCAAGRDTWPSTYYYWGQGTQVTVSS
low polyreactivity

Note down polyreactivity (PSR sort gate) recorded for QVQLVESGGGLVQAGGSLRLSCAASGSTFYTYAMGWSRPAPGKERELVAAINWIGDSTYYADSVKGRFTISRDNAKNTVYLQMNSLKPEDTAVYYCAADFTLGSRTEGLHMDYWGQGTQVTVSS
high polyreactivity

Look up polyreactivity (PSR sort gate) of QVQLVESGGGLVQAGGSLRLSCAASGRTFYSYAMGWYRQAPGKERELVAAISRSGNTYYADSVKGRFTISRDNAKNTVYLQMNSLKPEDTAVYYCAAYYWWGYPENDYWGQGTQVTVSS and report it.
high polyreactivity

Specify measured polyreactivity (PSR sort gate) for QVQLVESGGGLVQAGGSLRLSCAASGIIYWDYAMGWYRQAPGKEREYVAAINTSGGTTTYADSVKGRFTISRDNAKNTVYFQMNSLKREDTAVYYCAADPWVYYSYAYYSWGQGTQVTVSS .
low polyreactivity

Give a short answer stating reported polyreactivity (PSR sort gate) for QVQLQESGGGLVQAGGSLRLSCAASGNIFLGGDKGWYRQAPGKEREFVAAISDGTSTNYADSVKGRFTISRDNAKNTVYLQMNSLKPEDTAVYYCAAQYRYQRYSYAMEYWGQGTQVTVSS .
high polyreactivity

Please supply the value of reported polyreactivity (PSR sort gate) for the item QVQLVESGGGLVQAGGSLRLSCAASGRTFLNYAMGWYRQAPGKEREFVAAITWRVGTTYYADSVKGRFTISRDNAKNTVYLQMNSLKPEDTAVYYCAARSRTGRYDYWGQGTQVTVSS
high polyreactivity
